Measured values drawn from ChEMBL document CHEMBL4689842 for this set.

# Tested on: HEK-293T
# procedureText: Multiplex assay against HEK293T
# Assay type: toxicity, cell-based
# conditionLabel: human, 24 h, 10 µM, compound concentration 10 uM, replicate 1
outcomeMeasure: Population Apoptotic (%)
Note: unit % is implicit; provide only the numeric part.

Task item: Answer with reported Population Apoptotic (%) of `O=C(Nc1ccc(Cl)cc1)Nc1cccc(-c2cccc(N3CCCC3)n2)c1`
Reply: 85

====

# System: Fibroblast
# procedureText: Incucyte cell viability with human fibroblast; also: filed as whole numbers so only -1 and 0 and 1 occur
# Assay type: toxicity, cell-based
# conditionLabel: 18 h, 10 µM, compound concentration 10 uM, replicate number 1, timepoint 18 hours
The compounds listed here are annotated with their Growth Rate.
// return just the number, without any unit appended

Example compounds with recorded Growth Rate:
compound: O=C(NS(=O)(=O)c1ccc(NCC2CCOCC2)c([N+](=O)[O-])c1)c1ccc(N2CCN(Cc3ccc(C(F)(F)F)cc3-c3ccc(Cl)cc3)CC2)cc1Oc1cnc2[nH]ccc2c1
measuredTarget: Fibroblast
Growth Rate: 1
--
compound: CC(=O)C1=C(C)N(c2cccc(C(F)(F)F)c2)C(=O)N[C@@H]1c1ccc(C#N)nc1
measuredTarget: Fibroblast
Growth Rate: 0
--
compound: CCCS(=O)(=O)c1nc(NC2CC2)cc(-c2ccc3c(ccn3C3CC(C)(C)NC(C)(C)C3)c2)n1
measuredTarget: Fibroblast
Growth Rate: 0
--
compound: CC(C)(C)OC(=O)N1CCCC1CNC1CCC(c2cc(F)ccc2F)(S(=O)(=O)c2ccc(Cl)cc2)CC1 (stereo not given)
measuredTarget: Fibroblast
Growth Rate: 0
--
compound: C[C@@H]1CN(c2cc(-c3n[nH]c4ccc(OC5(C)CC5)cc34)ncn2)C[C@H](C)O1
measuredTarget: Fibroblast
Growth Rate: 1

Task item: Please report Growth Rate with Fibroblast for item CN(C)C(=O)C(CCN1CCC(O)(c2ccc(Cl)cc2)CC1)(c1ccccc1)c1ccccc1.Cl [LOPERAMIDE HYDROCHLORIDE] .
Reply: 0

Task item: Lab note: record Growth Rate of `CC[C@H](CO)Nc1nc(NCc2ccccc2)c2ncn(C(C)C)c2n1` tested on Fibroblast.
Reply: 0

Task item: Retrieve Growth Rate on Fibroblast; query `CNC(=O)c1ccccc1Nc1cc(Nc2ccc(N3CCOCC3)cc2OC)ncc1C(F)(F)F`
Reply: 1

Task item: Fill in Growth Rate for `COc1cc2c(CCNC(C)=O)c[nH]c2cc1Cl` tested with Fibroblast.
Reply: 1

Task item: Look up Fibroblast data: Growth Rate of CCOC(=O)c1c(C)[nH]c2ccc3c(c12)CN1CCc2cc(OC)ccc2C1O3 (stereo not given) , then report it.
Reply: 0

====

# Test system: Fibroblast
# procedureText: Multiplex assay against human fibroblast
# Type: toxicity, cell-based
# conditionLabel: 48 h, 10 µM, compound concentration 10 uM, replicate 2
# Population Apoptotic (%) annotations
Numbers only; they are read as %.

Below, 5 compounds whose answers are already recorded.
compound: Cl.Oc1ccc2c3c1O[C@H]1c4[nH]c5c(c4C[C@@]4(O)[C@@H](C2)N(CC2CC2)CC[C@]314)C[C@@]1(O)[C@H]2Cc3ccc(O)c4c3[C@@]1(CCN2CC1CC1)[C@H]5O4
measuredTarget: Fibroblast
recordedNumber: 66

compound: O=C1N/C(=N/c2ccccc2F)S/C1=C\c1ccc(C(=O)O)cc1
measuredTarget: Fibroblast
recordedNumber: 40

compound: C=C1/C(=C\C=C2/CCC[C@]3(C)[C@@H]([C@H](C)/C=C/[C@H](C)C(C)C)CC[C@@H]23)C[C@@H](O)C[C@@H]1O [DOXERCALCIFEROL]
measuredTarget: Fibroblast
recordedNumber: 100

compound: CN1C2CCC1CC(OC(c1ccc(F)cc1)c1ccc(F)cc1)C2.Cl (stereo not given)
measuredTarget: Fibroblast
recordedNumber: 100

compound: O=C(Nc1ccc(-c2ccnc(Nc3ccc(N4CCOCC4)cc3)n2)cc1)[C@@H]1CCCN1
measuredTarget: Fibroblast
recordedNumber: 33

Continue with the next compound.
Task item: Identify the reported Population Apoptotic (%) for the following entry. O=C1NC(=O)C(c2cnc3ccccn23)=C1c1cn2c3c(cc(F)cc13)CN(C(=O)N1CCCCC1)CC2 [LY-2090314]
Reply: 93
